Each entry below lists one item and its recorded log10 of solubility value.
protocol summary: Solubility in Balb/C mouse serum at pH 7.4
Assay type: ADME, cell-free
# log10 transformed; quantity=solubility; unit=µg/mL

smiles structure	log10 of solubility
CC(=O)OCCCn1c(Sc2nc3cccc(Cl)c3s2)nc2c(N)ncnc21	0.95
CCOP(=O)(CCn1c(Sc2nc3cncc(Cl)c3s2)nc2c(N)ncnc21)OCC	1.15
CC(C)(C)NCCCn1c(Sc2nc3cccc(Cl)c3s2)nc2c(N)ncnc21	2.30
CCCCn1c(Sc2nc3cccc(OC)c3s2)nc2c(N)ncnc21	1.26
CC(C)(C)CNCCn1c(Sc2nc3cccc(Cl)c3s2)nc2c(N)ncnc21	0.69

stdin: What measured log10 of solubility goes with Nc1ncnc2c1nc(Sc1nc3cccc(Cl)c3s1)n2CCNC1CC1 ?
stdout: 1.77

stdin: What measured log10 of solubility goes with N#CCCCCn1c(Sc2nc3cccc(Cl)c3s2)nc2c(N)ncnc21 ?
stdout: 1.50

###

protocol summary: Solubility in simulated intestinal fluid at pH 6.5
Assay type: physicochemical
Each entry below lists one item and its recorded solubility value.
// note: answer is a bare numeric in µg/mL

smiles structure	unit abbreviation	solubility
Nc1ncnc2c1nc(Sc1nc3cccc(Cl)c3s1)n2CCNC1CC1	µg/mL	21
CC(C)(C)NCCCn1c(Sc2nc3cccc(Cl)c3s2)nc2c(N)ncnc21	µg/mL	138
N#CCCCCn1c(Sc2nc3cccc(Cl)c3s2)nc2c(N)ncnc21	µg/mL	4.4

stdin: What measured solubility goes with CCCCn1c(Sc2nc3cccc(OC)c3s2)nc2c(N)ncnc21 ?
stdout: 2

stdin: What measured solubility goes with CC(=O)OCCCn1c(Sc2nc3cccc(Cl)c3s2)nc2c(N)ncnc21 ?
stdout: 16

stdin: What measured solubility goes with CC(=O)OCCCCn1c(Sc2nc3cccc(Cl)c3s2)nc2c(N)ncnc21 ?
stdout: 3

stdin: What measured solubility goes with CCOP(=O)(CCn1c(Sc2nc3cncc(Cl)c3s2)nc2c(N)ncnc21)OCC ?
stdout: 38.3

###

protocol summary: Solubility in simulated gastric fluid at pH 2.0
Assay type: physicochemical
Criterion: solubility meeting or surpassing 60 µg/mL. Met: class 1. Not met: class 0.

Answered cases to consult:
smiles structure	class assignment
CC(=O)OCCCn1c(Sc2nc3cccc(Cl)c3s2)nc2c(N)ncnc21	class 1
CCOP(=O)(CCn1c(Sc2nc3cccc(Cl)c3s2)nc2c(N)ncnc21)OCC	class 1
Nc1ncnc2c1nc(Sc1nc3cccc(Cl)c3s1)n2CCNC1CC1	class 1
CCOP(=O)(CCn1c(Sc2nc3cncc(Cl)c3s2)nc2c(N)ncnc21)OCC	class 1
CC(=O)OCCCCn1c(Sc2nc3cccc(Cl)c3s2)nc2c(N)ncnc21	class 0

Please turn your attention to the following entry.
stdin: Does solubility meet or surpass 60 µg/mL for CCCCn1c(Sc2nc3cccc(OC)c3s2)nc2c(N)ncnc21 ?
stdout: class 0

###

protocol summary: Cmax in Balb/C mouse at 100 mg/kg, po
Format: ADME, organism-based
Design: dose 100 mg/kg, route oral
cond: in vivo
assay endpoint: Cmax (ng/mL)
// note: answer is a bare numeric in ng/mL

stdin: What measured Cmax goes with Nc1ncnc2c1nc(Sc1nc3cccc(Cl)c3s1)n2CCNC1CC1 ?
stdout: 4510

###

measured on: Heat shock protein HSP90 (Homo sapiens, UniProt P07900+P08238)
protocol summary: Ability to degrade Her2 in MCF7 cells
Type: functional, cell-based
assay endpoint: IC50 (nM)
// note: answer is a bare numeric in nM

Example entries and their recorded answers appear below.
smiles structure	measured on	IC50 / nM
Nc1ncnc2c1nc(Sc1nc3cccc(Cl)c3s1)n2CCCCO	Heat shock protein HSP90 (Homo sapiens, UniProt P07900+P08238)	150
CC(C)(C)NCCn1c(Sc2nc3cccc(Cl)c3s2)nc2c(N)ncnc21	Heat shock protein HSP90 (Homo sapiens, UniProt P07900+P08238)	140

stdin: What measured IC50 goes with CCCCn1c(Sc2nc3cccc(Br)c3s2)nc2c(N)ncnc21 ?
stdout: 330

stdin: What measured IC50 goes with CC(=O)OCCCCn1c(Sc2nc3cccc(Cl)c3s2)nc2c(N)ncnc21 ?
stdout: 130
